This collection of values is drawn from patent US20190031665A1.

# tgt: human tryptophan 2,3-dioxygenase (hTDO) (Homo sapiens, UniProt P48775)
# Construct: His tag (N); purchased BPS Bioscience, San Diego, Calif., USA; host or cells: E. coli
# Sequence (P48775 whole entry): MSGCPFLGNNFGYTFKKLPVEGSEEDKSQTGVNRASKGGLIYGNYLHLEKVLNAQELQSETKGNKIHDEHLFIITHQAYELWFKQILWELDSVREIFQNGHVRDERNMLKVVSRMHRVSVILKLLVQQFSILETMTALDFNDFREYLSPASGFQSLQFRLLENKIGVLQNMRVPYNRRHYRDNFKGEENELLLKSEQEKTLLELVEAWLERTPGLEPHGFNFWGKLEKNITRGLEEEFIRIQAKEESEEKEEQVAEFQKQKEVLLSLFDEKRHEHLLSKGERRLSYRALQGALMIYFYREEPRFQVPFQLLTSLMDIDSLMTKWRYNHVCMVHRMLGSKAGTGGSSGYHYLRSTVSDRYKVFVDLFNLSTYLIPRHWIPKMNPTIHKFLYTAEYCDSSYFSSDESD
# assayComment: In-vitro human tryptophan 2,3-dioxygenase (TDO) enzyme assay
# Format: biochemical
# conditionSet: hTDO enzyme at 1.0 μM concentration
For each of the molecules below, state its inhibition at 1 µM.

What value of inhibition at 1 µM has been recorded for this entry: CC1=C(c2ccccc2)C(CC(=O)c2ccc(-c3ccc(C(F)(F)F)cc3)cc2)n2cncc21 (centres unmarked)
≤ 50%

Try CC1=C(c2ccccc2)C(CC(=O)c2ccc(-c3cncnc3)cc2)n2cncc21 (centres unmarked) next.
≥ 50%

Param item: CC1=C(c2ccccc2)C(CC(O)C2CCN(C(=O)c3ccccn3)CC2)n2cncc21 (single isomer, unassigned) [Example 160]
≤ 50%

Item: CC1=C(c2ccccc2)C(CC(=O)c2cccc3ccccc23)n2cncc21 (centres unmarked)
≥ 50%

Item: CC1=C(c2ccccc2)C(CC(O)C2CCN(C(=O)NC3CCCCC3)CC2)n2cncc21 (centres unmarked)
≤ 50%

Then this molecule: CC1=C(c2ccccc2)C(C[C@H](O)C2CCC(C(=O)Nc3ccncc3)CC2)n2cncc21 (some centres unmarked)
≥ 50%

How about this molecule: CC1=C(c2ccccc2)C(C[C@H](O)C2CCC(C(=O)NC3CCCCC3)CC2)n2cncc21 (some centres unmarked)
≥ 50%

And the next one, CC1=C(c2ccccc2)C(CC(O)C2CCN(Cc3ccccc3)CC2)n2cncc21 (centres unmarked) ?
≤ 50%

Next molecule: CCCCC(O)CC1C(c2ccccc2)=C(C)c2cncn21 (centres unmarked)
≥ 50%

Do the same for CC1=C(c2ccccc2)C(CC(=O)C23CC4CC(CC(C4)C2)C3)n2cncc21 (centres unmarked) please
≥ 50%

Another molecule to check: CC1=C(c2cccc(Cl)c2)C(CC(O)C2CCCCC2)n2cncc21 (centres unmarked)
≤ 50%

Next: CC1=C(c2ccccc2)C(CC(=O)c2ccc(Oc3ccccc3F)cc2)n2cncc21 (centres unmarked)
≤ 50%

Then what about the molecule CC(C)C1=C(c2ccccc2)C(CC(=O)C2CCCCC2)n2cncc21 (centres unmarked) ?
≤ 50%

What do you get for CC1=C(c2ccccc2)C(CC(O)c2cccc(Cl)c2)n2cncc21 (centres unmarked) ?
≥ 50%

Further, for CC1=C(c2ccc(C)cc2)C(CC(O)C2CCCCC2)n2cncc21 (centres unmarked) ?
≥ 50%

Cool, now CC1=C(c2cccc(Cl)c2)C(CC(=O)C2CCCCC2)n2cncc21 (centres unmarked)
≤ 50%

Now consider CC1=C(c2ccccc2)C(CC(O)CCC(=O)N2CCC(O)CC2)n2cncc21 (centres unmarked) and answer again.
≤ 50%

* * *

# tgt: human tryptophan 2,3-dioxygenase (hTDO) (Homo sapiens, UniProt P48775)
# Construct: His tag (N); purchased BPS Bioscience, San Diego, Calif., USA; host or cells: E. coli
# assayComment: In-vitro human tryptophan 2,3-dioxygenase (TDO) enzyme assay
# Format: biochemical
# conditionSet: hTDO enzyme at 1.0 μM concentration
Task for the reader: assign each of the following compounds its reported inhibition at 1 µM.

Please report the recorded inhibition at 1 µM for CC1=C(c2ccccc2)C(CC(O)c2ccc(C(=O)Nc3ccc(Cl)cc3)cc2)n2cncc21 (stereo not shown) [Example 82] .
≤ 50%

Next entry: CC1=C(c2ccccc2)C(CC(=O)C2CN(C(=O)c3ccccc3)C2)n2cncc21 (stereo not shown) [Example 159]
≤ 50%

Another: COC(=O)c1ccc(C(=O)CC2C(c3ccccc3)=C(C)c3cncn32)cc1 (stereo not shown) [Example 18]
≥ 50%

Next: CC1=C(c2ccccc2)C(CC(=O)c2ccsc2)n2cncc21 (stereo not shown) [Example 45]
≥ 50%
